The reported measurements were obtained from ChEMBL document CHEMBL1156565.

RUN DESCRIPTION: Total AUC in New Zealand white rabbit at 0.3 mg/kg, intranasally
Assay type: ADME, organism-based, Oryctolagus cuniculus
Parameters: time AUCmax, route nasal, dose 0.3 mg/kg
CONDITION DETAILS: in vivo, inhaled or intranasal
READOUT LABEL: AUC (µM·h)
Kindly provide the numeric value in µM·h only, without the unit symbol.

Lookup: Consider the compound Cc1cc(C[C@@H](NC(=O)N2CCC(N3Cc4cccc(F)c4NC3=O)CC2)C(=O)N2CCC(N3CCCCC3)CC2)cc2cn[nH]c12 . State its measured AUC.
Found: 0.36

* * *

RUN DESCRIPTION: Tmax in New Zealand white rabbit at 0.1 mg/kg, intranasally
Type: ADME, organism-based, Oryctolagus cuniculus
Parameters: dose 0.1 mg/kg
CONDITION DETAILS: in vivo, inhaled or intranasal
READOUT LABEL: Tmax (min)
Kindly provide the numeric value in min only, without the unit symbol.

Lookup: Consider the compound Cc1cc(C[C@@H](NC(=O)N2CCC(N3Cc4cccc(F)c4NC3=O)CC2)C(=O)N2CCC(N3CCCCC3)CC2)cc2cn[nH]c12 . State its measured Tmax.
Found: 10.2
